# target: EZH2/SUZ12/EED complex (Homo sapiens, UniProt O75530+Q15022+Q15910)
# Sequence (Q15910 whole entry, one chain of several): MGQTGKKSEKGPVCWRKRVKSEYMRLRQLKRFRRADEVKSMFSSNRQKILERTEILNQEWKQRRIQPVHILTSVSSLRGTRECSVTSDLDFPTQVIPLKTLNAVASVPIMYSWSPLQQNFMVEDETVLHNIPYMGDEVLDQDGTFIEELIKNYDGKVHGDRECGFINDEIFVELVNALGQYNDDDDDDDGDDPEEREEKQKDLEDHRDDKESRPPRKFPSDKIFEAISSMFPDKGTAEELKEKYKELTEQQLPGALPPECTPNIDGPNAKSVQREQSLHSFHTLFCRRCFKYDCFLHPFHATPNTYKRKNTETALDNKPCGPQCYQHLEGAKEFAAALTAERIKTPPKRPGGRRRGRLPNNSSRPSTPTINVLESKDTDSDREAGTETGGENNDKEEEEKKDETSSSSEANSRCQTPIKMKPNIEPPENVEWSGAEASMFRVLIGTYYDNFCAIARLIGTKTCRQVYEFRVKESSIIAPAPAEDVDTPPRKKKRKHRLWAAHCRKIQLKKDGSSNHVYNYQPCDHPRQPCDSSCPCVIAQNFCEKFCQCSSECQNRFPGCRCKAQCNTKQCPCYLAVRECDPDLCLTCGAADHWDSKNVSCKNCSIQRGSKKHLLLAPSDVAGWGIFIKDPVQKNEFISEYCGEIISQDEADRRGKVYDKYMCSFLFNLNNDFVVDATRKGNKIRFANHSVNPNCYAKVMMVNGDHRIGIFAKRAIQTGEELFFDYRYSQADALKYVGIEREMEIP
# Sequence (Q15022 whole entry, one chain of several): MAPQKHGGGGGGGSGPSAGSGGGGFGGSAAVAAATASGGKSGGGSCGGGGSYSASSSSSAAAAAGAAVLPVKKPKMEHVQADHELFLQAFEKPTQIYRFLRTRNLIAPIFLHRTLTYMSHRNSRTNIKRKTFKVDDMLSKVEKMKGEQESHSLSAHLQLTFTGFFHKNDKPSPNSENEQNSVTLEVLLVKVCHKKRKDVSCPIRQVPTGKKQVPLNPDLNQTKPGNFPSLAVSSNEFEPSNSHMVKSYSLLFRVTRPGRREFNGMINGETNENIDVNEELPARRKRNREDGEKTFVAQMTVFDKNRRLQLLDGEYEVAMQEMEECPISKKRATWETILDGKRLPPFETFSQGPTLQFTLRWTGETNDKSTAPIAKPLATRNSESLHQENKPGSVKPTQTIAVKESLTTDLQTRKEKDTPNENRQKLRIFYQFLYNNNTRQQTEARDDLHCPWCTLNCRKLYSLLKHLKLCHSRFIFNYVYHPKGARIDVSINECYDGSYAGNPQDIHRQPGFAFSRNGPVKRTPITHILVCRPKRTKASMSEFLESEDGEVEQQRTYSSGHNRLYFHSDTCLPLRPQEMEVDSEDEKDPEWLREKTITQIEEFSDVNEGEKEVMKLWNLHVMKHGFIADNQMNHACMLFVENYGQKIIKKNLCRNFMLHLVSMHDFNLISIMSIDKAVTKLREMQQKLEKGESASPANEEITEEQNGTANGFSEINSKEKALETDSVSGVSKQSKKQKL
# procedure-text: Binding affinity to PRC2 complex of EZH2-EED-SUZ12 (unknown origin) assessed as dissociation constant by isothermal titration calorimetry method
property: Kd (nM)
Report the value in nM with no unit label.

Look up Kd: `CS(=O)(=O)c1ccc(-c2cnc(NCc3ccco3)n3cnnc23)cc1` 82

====

# target: Polycomb protein EED (Homo sapiens)
# Sequence (O75530 whole entry, the tested form may be a part): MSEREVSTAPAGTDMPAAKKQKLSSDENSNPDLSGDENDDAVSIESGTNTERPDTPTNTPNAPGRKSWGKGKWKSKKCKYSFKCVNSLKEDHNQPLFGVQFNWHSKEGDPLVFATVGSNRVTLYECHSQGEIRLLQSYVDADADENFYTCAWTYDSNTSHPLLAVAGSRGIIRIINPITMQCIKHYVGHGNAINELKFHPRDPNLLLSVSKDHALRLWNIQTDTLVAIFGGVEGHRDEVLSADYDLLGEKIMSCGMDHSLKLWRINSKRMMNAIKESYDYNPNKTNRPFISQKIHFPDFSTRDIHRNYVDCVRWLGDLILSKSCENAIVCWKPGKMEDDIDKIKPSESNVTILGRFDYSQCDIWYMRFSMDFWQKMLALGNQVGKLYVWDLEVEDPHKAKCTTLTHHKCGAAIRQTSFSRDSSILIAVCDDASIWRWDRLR
# procedure-text: Binding affinity to his tagged EED (1 to 441 residues) (unknown origin) incubated for 20 mins in presence of biotinylated H3K27me3 peptide (19 to 33 residues) by alphascreen competitive binding assay
property: IC50 (µM)
Lab book: enter the figure in µM, no units written.

Fill blank: measured IC50 of the compound `Cc1cc(C)n(-c2cc(N3CCCc4ccccc43)ccc2[N+](=O)[O-])n1` is ____. 8.76
